# Test system: S180 ascites
# assay: Anti-Tumor Screening; S180 ascites in mice (% increase in life span, survivors)
# Format: in vivo, female CFW Swiss mice
# measurement_setup: 200 mg/kg
measurement_type: Survivors

Qu. Can you share its Survivors? I mean this compound: O=C([O-])c1ccccc1C(=O)[O-].O=C([O-])c1ccccc1C(=O)[O-].[K+].[K+].[Pd+2] [Example 5, Potassium Bis(phthalato)palladate(II)]
Ans. 2 of 6

Qu. Continue with O=C([O-])C(=O)[O-].O=C([O-])C(=O)[O-].[K+].[K+].[Pd+2] [K2 [Pd(Oxalate)2], reference compound]
Ans. 0 of 6

Qu. Continue with CC(C(=O)[O-])C(=O)[O-].CC(C(=O)[O-])C(=O)[O-].[K+].[K+].[Pd+2] [Example 3]
Ans. 0 of 6

Qu. Continue with O=C([O-])C(O)C(=O)[O-].O=C([O-])C(O)C(=O)[O-].[K+].[K+].[Pd+2] [Example 4, Potassium Bis(Tartronato)palladate(II)]
Ans. 0 of 6

Hello, the source for this data is patent US4839386A, in case you need it.
